# inhibition at 0.1 µM per entry
# MEASURED_ON: HDAC1 (Homo sapiens, UniProt Q13547)
# Construct: purchased BPS Bioscience
# Sequence (Q13547 whole entry): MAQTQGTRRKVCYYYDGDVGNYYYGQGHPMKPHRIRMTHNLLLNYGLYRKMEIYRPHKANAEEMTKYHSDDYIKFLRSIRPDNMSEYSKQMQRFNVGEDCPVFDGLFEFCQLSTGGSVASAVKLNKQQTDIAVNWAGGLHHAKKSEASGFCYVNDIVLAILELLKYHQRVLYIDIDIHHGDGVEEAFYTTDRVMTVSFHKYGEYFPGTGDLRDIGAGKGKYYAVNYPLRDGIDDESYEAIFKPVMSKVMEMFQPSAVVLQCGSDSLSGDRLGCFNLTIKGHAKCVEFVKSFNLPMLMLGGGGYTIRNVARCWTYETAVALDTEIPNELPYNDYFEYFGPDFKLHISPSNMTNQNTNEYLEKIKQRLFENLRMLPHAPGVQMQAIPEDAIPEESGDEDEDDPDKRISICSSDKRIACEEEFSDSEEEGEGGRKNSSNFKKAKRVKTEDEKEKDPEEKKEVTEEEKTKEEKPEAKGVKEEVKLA
# TEST: In vitro HDAC inhibition fluorescence assay, HDAC1
# Assay type: biochemical
# CONDITION_CONTEXT: 100 nM; read-out: Inhibition Rate of HDAC1 (%)
Enter your answer as a number in %; do not include the unit.

Solved entries:
{"COMPOUND": "CCCNNC(=O)CCCCCCCNC(=O)Cc1ccccc1 [Compound 14e]", "MEASURED_ON": "HDAC1 (Homo sapiens, UniProt Q13547)", "inhibition at 0.1 µM [%]": 51.6}
{"COMPOUND": "CCCNNC(=O)CCCCNC(=O)Cc1ccccc1 [Compound 14b]", "MEASURED_ON": "HDAC1 (Homo sapiens, UniProt Q13547)", "inhibition at 0.1 µM [%]": 7.7}
{"COMPOUND": "CCCNNC(=O)CCCC(=O)NCCc1ccccc1", "MEASURED_ON": "HDAC1 (Homo sapiens, UniProt Q13547)", "inhibition at 0.1 µM [%]": 3.1}

Turning now to a further record.
// inhibition at 0.1 µM lookup, compound = CCCNNC(=O)C=Cc1ccc(CNCc2ccccn2)cc1 [Compound 25d] , result: 61.7

====

# MEASURED_ON: HDAC1 (Homo sapiens, UniProt Q13547)
# Construct: purchased BPS Bioscience
# TEST: In vitro HDAC inhibition fluorescence assay, HDAC1
# Format: biochemical
# CONDITION_CONTEXT: 10 nM; read-out: Inhibition Rate of HDAC1 (%)
MEASURED_ENDPOINT: inhibition at 0.01 µM (%)
Only the number, expressed in %, is required.

{"COMPOUND": "CCCNNC(=O)CCCCCCCCNC(=O)Cc1ccccc1 [Compound 14f]", "inhibition at 0.01 µM, %": 9.8}
{"COMPOUND": "CCCNNC(=O)CCCCC(=O)NCCc1ccccc1 [Compound 9c]", "inhibition at 0.01 µM, %": -6}
{"COMPOUND": "CCCNNC(=O)C=Cc1ccc(CNCc2cccc3ccccc23)cc1 [Compound 25g]", "inhibition at 0.01 µM, %": 33.9}
{"COMPOUND": "CCCNNC(=O)c1ccc(C(=O)NCCc2ccccc2)cc1 [Compound 9g]", "inhibition at 0.01 µM, %": 23.5}
{"COMPOUND": "CCCNNC(=O)C=Cc1ccc(C(=O)N2CCc3ccccc3C2)cc1 [Compound 19b]", "inhibition at 0.01 µM, %": -4.6}
{"COMPOUND": "CCCNNC(=O)CCCCCCNC(=O)Cc1ccccc1 [Compound 14d]", "inhibition at 0.01 µM, %": 1.9}

HDAC1 (Homo sapiens, UniProt Q13547) data for CCCNNC(=O)C=Cc1ccc(C(=O)NC2Cc3ccccc3C2)cc1 [Compound 19a] ; its inhibition at 0.01 µM: 8.1

Observed inhibition at 0.01 µM, HDAC1 (Homo sapiens, UniProt Q13547), CCCNNC(=O)CCC(=O)NCCc1ccccc1 [Compound 9a] : 2.2

// inhibition at 0.01 µM (HDAC1 (Homo sapiens, UniProt Q13547)) for CCCNNC(=O)C=Cc1ccc(CNc2ccccc2)cc1 [Compound 25a] = 14.2

Test item CCCNNC(=O)C=Cc1ccc(CNCCc2ccccc2)cc1 [Compound 25c] ; HDAC1 (Homo sapiens, UniProt Q13547); reported inhibition at 0.01 µM was 31.1

Lab entry: HDAC1 (Homo sapiens, UniProt Q13547) assay, compound CCCNNC(=O)CCCCNC(=O)Cc1ccccc1 [Compound 14b] , inhibition at 0.01 µM = -9.04

// compound CCCNNC(=O)C=Cc1ccc(CN2C(=O)c3ccccc3C2=O)cc1 [Compound 30] , assay HDAC1 (Homo sapiens, UniProt Q13547), inhibition at 0.01 µM value: 5.1

Item: CCCNNC(=O)CCCNC(=O)Cc1ccccc1 [Compound 14a] | System: HDAC1 (Homo sapiens, UniProt Q13547) | inhibition at 0.01 µM: -7

Log: HDAC1 (Homo sapiens, UniProt Q13547), compound CCCNNC(=O)C=Cc1ccc(C(=O)N2CCc3cc(Br)ccc3C2)cc1 [Compound 19c] , inhibition at 0.01 µM = 1.5

====

# Tested on: THP-1 cells
# TEST: Cell viability assay (resazurin), THP-1
# Type: cell-based
# CONDITION_CONTEXT: Homo sapiens, THP-1, 72 h; read-out: IC50 anti-proliferative activity THP-1
Entries and their pIC50
Answer as the number alone; pIC50 is minus log10 of concentration in mol/L.

Example entries and their recorded answers appear below.
{"MOLECULE": "CCCNNC(=O)C=Cc1ccc(CNCc2ccccc2)cc1 [Compound 25b]", "MEASURED_ON": "THP-1 cells", "MEASURED_ENDPOINT": "pIC50", "DATA_VALUE": 6.29}
{"MOLECULE": "CCCNNC(=O)C=Cc1ccc(CNC2Cc3ccccc3C2)cc1 [Compound 25e]", "MEASURED_ON": "THP-1 cells", "MEASURED_ENDPOINT": "pIC50", "DATA_VALUE": 6.35}
{"MOLECULE": "CCCNNC(=O)C=Cc1ccc(CNCc2cccc3ccccc23)cc1 [Compound 25g]", "MEASURED_ON": "THP-1 cells", "MEASURED_ENDPOINT": "pIC50", "DATA_VALUE": 5.99}
{"MOLECULE": "Nc1ccccc1NC(=O)c1ccc(CNC(=O)OCc2cccnc2)cc1 [Entinostat, reference compound]", "MEASURED_ON": "THP-1 cells", "MEASURED_ENDPOINT": "pIC50", "DATA_VALUE": 5.82}

Then there is this molecule:
# pIC50 of CCCNNC(=O)C=Cc1ccc(CNCCc2ccccc2)cc1 [Compound 25c] = 6.41

====

# MEASURED_ON: HDAC1 (Homo sapiens)
# Construct: purchased BPS Bioscience
# TEST: In vitro HDAC inhibition fluorescence assay, HDAC1
# Type: biochemical
# CONDITION_CONTEXT: 100 nM; read-out: Inhibition Rate of HDAC1 (%)
MEASURED_ENDPOINT: inhibition at 0.1 µM (%)
Numbers only here, please. The scale is %.

{"COMPOUND": "CCCNNC(=O)C=Cc1ccc(C(=O)N2CCc3ccccc3C2)cc1 [Compound 19b]", "MEASURED_ON": "HDAC1 (Homo sapiens)", "QUANTITY_UNIT": "%", "inhibition at 0.1 µM": -0.4}

Data point: CCCNNC(=O)CCCCCCCCNC(=O)Cc1ccccc1 [Compound 14f] ; inhibition at 0.1 µM = 32.7

Query CCCNNC(=O)C=Cc1ccc(CNCc2cccc3ccccc23)cc1 [Compound 25g] yields inhibition at 0.1 µM of 76.5

Recorded inhibition at 0.1 µM (compound CCCNNC(=O)C=Cc1ccc(CNCCc2ccccc2)cc1 [Compound 25c] ): 83.6

Entry CCCNNC(=O)Cc1ccc(C(=O)NCCc2ccccc2)cc1 ; inhibition at 0.1 µM = 16.4

GET /value?item= CCCNNC(=O)C=Cc1ccc(CNc2cccc3ccccc23)cc1 [Compound 25f] &field=inhibition at 0.1 µM returns 71.2

Sample CCCNNC(=O)C=Cc1ccc(CN2C(=O)c3ccccc3C2=O)cc1 ; inhibition at 0.1 µM observed: 28.4

// inhibition at 0.1 µM value for CCCNNC(=O)C=Cc1ccc(C(=O)NC2Cc3ccccc3C2)cc1 [Compound 19a] : 39.9

====

# MEASURED_ON: HDAC1 (Homo sapiens, UniProt Q13547)
# Construct: purchased BPS Bioscience
# TEST: In vitro HDAC inhibition fluorescence assay, HDAC1
# Assay type: biochemical
# CONDITION_CONTEXT: 10 nM; read-out: Inhibition Rate of HDAC1 (%)
Listed here: items and their measured inhibition at 0.01 µM.
Answers without a unit are incomplete; give the number and then its unit.

{"COMPOUND": "CCCNNC(=O)C=Cc1ccc(C(=O)N2CCc3ccc(Br)cc3C2)cc1 [Compound 19d]", "inhibition at 0.01 µM": "-1.4%"}
{"COMPOUND": "CCCNNC(=O)c1ccc(CCC(=O)NCCc2ccccc2)cc1 [Compound 9m]", "inhibition at 0.01 µM": "21.2%"}
{"COMPOUND": "CCCNNC(=O)c1ccc(CC(=O)NCCc2ccccc2)cc1 [Compound 9h]", "inhibition at 0.01 µM": "5.61%"}
{"COMPOUND": "CCCNNC(=O)CCc1ccc(C(=O)NCCc2ccccc2)cc1 [Compound 9k]", "inhibition at 0.01 µM": "23.1%"}
{"COMPOUND": "CCCNNC(=O)CCCCCNC(=O)Cc1ccccc1 [Compound 14c]", "inhibition at 0.01 µM": "-6.8%"}

Now look at this entry.
Entry CCCNNC(=O)CCCCCCC(=O)NCCc1ccccc1 [Compound 9e] — recorded inhibition at 0.01 µM = 12%
